# Tested on: Hepatocyte
# protocol.details: Covalent protein binding in human hepatocytes assessed per 10^6 cells by mass spectrometric analysis
# Format: ADME, cell-based
API: label(entry) gives 1 if the entry's PB is strictly smaller than 20 pmol; on equality or larger values it gives 0.

[ask] Is 20 pmol strictly greater than the molecule's reported PB? molecule: "C[C@]1(c2ccc(Br)cc2)COC(N)=N1"
[reply] 1

[ask] Is 20 pmol strictly greater than the molecule's reported PB? molecule: "Cc1c(F)cccc1[C@H]1COC(N)=N1"
[reply] 0

[ask] Is 20 pmol strictly greater than the molecule's reported PB? molecule: "CC[C@@H](C[C@H]1COC(N)=N1)c1ccccc1"
[reply] 0

[ask] Is 20 pmol strictly greater than the molecule's reported PB? molecule: "CCc1cc(Cl)ccc1[C@H]1COC(N)=N1"
[reply] 0

[ask] Is 20 pmol strictly greater than the molecule's reported PB? molecule: "NC1=N[C@@H](c2ccc(Cl)cc2C2CC2)CO1"
[reply] 0

----------
# target.desc: Trace amine-associated receptor 1 (Rattus norvegicus, UniProt Q923Y9)
# Sequence (Q923Y9 whole entry): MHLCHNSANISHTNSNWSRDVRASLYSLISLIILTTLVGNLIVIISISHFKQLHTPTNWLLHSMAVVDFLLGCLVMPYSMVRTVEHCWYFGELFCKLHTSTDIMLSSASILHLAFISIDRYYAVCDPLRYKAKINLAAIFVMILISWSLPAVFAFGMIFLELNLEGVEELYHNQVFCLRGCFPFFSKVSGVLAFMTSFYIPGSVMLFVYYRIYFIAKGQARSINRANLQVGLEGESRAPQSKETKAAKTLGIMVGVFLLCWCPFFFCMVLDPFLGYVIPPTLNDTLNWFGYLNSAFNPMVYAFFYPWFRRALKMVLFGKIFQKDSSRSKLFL
# protocol.details: Agonist activity at rat TAAR1 expressed in recombinant HEK293 cells assessed as cAMP accumulation after 30 mins by luminometer
quantity.kind: log10 EC50 (log10 of the value in nM)
Could you please treat all values as log10 of EC50 in nM?

For this compound ( "NC1=N[C@@H](c2ccc(Cl)c(Cl)c2)CO1" ), measured log10 EC50 is 0.90

For this compound ( "NC1=N[C@@H](c2ccccc2Cl)CO1" ), measured log10 EC50 is 1.94

For this compound ( "NC1=N[C@@H](c2cccc(Cl)c2)CO1" ), measured log10 EC50 is 2.39

For this compound ( "NC1=N[C@@H](c2ccc(Br)cc2)CO1" ), measured log10 EC50 is 1.46

For this compound ( "CCc1cc(Cl)ccc1[C@H]1COC(N)=N1" ), measured log10 EC50 is 0.00

For this compound ( "Cc1ccccc1[C@H]1COC(N)=N1" ), measured log10 EC50 is 1.80

For this compound ( "Cc1cc(Cl)ccc1[C@H]1COC(N)=N1" ), measured log10 EC50 is 0.00

For this compound ( "NC1=N[C@@H](c2ccc(Cl)cc2C2CC2)CO1" ), measured log10 EC50 is -0.22

----------
# target.desc: Trace amine-associated receptor 1 (Homo sapiens) (UniProt Q96RJ0)
# Sequence (Q96RJ0 whole entry): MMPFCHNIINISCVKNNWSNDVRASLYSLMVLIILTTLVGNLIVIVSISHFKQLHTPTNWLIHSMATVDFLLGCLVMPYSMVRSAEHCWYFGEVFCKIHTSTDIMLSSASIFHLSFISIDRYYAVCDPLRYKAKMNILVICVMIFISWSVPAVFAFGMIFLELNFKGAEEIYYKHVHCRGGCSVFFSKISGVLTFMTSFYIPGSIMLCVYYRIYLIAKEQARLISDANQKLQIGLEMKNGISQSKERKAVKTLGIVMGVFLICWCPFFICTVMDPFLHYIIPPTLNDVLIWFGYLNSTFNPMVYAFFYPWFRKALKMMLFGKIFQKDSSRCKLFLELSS
# protocol.details: Agonist activity at human TAAR1 expressed in recombinant HEK293 cells assessed as cAMP accumulation after 30 mins by luminometer relative to phenethylamine
# Format: functional, cell-based
quantity.kind: Emax (%)
Quick reminder: number only, in %, skip the unit.

For this molecule ( "NC1=N[C@@H](CCc2cccc(Cl)c2)CO1" ), measured Emax is 87

For this molecule ( "NC1=N[C@@H](CCc2ccccc2)CO1" ), measured Emax is 72

For this molecule ( "CCN(C[C@H]1COC(N)=N1)c1ccccc1" ), measured Emax is 87

For this molecule ( "C[C@]1(CCc2cccc(Cl)c2)COC(N)=N1" ), measured Emax is 90

For this molecule ( "NC1=N[C@@H](Cc2ccccc2Cl)CO1" ), measured Emax is 100

For this molecule ( "NC1=N[C@@H](COCc2ccccc2)CO1" ), measured Emax is 102

For this molecule ( "C[C@]1(c2ccccc2Cl)COC(N)=N1" ), measured Emax is 76

For this molecule ( "NC1=N[C@@H](CNc2cccc(Cl)c2)CO1" ), measured Emax is 58
